Where a name gives a salt, the structure may show the parent alone.
For each record, write down the corresponding melting point.

Which measured melting point value corresponds to "COc1cccc2c1nc(C(F)F)n2-c1nc(N[C@@H]2CCCN(S(C)(=O)=O)C2)nc(N2CCOCC2)n1" ?
241 to 243 °C

Field request: melting point | item: "COc1cccc2c1nc(C(F)F)n2-c1nc(N[C@H]2CC[C@H](NS(C)(=O)=O)CC2)nc(N2CCOCC2)n1"
269 to 272 °C

Looking for the measured melting point of "COc1cccc2c1nc(C(F)F)n2-c1nc(OC2CCN(S(=O)(=O)CCN3CCN(S(C)(=O)=O)CC3)CC2)nc(N2CCOCC2)n1" , can you help?
251 to 254 °C

Quick check: melting point of COc1cccc2c1nc(C(F)F)n2-c1nc(-c2ccc(S(=O)(=O)N3CCN(C)CC3)cc2)nc(N2CCOCC2)n1 (as salt: methanesulfonate) ?
289 to 292 °C

Any idea what its melting point is? The molecule is COc1cccc2c1nc(C(F)F)n2-c1nc(N2CCOCC2)nc(N(C)C2CCCN(S(C)(=O)=O)C2)n1 (stereo not drawn)
201 to 203 °C

Requested read-out: melting point. Entry: COc1cccc2c1nc(C(F)F)n2-c1nc(-c2ccc(N(C)S(=O)(=O)CCN(C)C)cc2)nc(N2CCOCC2)n1 (as salt: methanesulfonate)
218 to 220 °C
